// values below are reported Log 1/C
# System: Escherichia coli
# PROCEDURE_DETAILS: Antibacterial activity was evaluated against Escherichia coli
# Type: functional
ATTRIBUTE_MEASURED: Log 1/C

[
  {
    "COMPOUND": "O=C(O)c1cn(C2CC2)c2c(Cl)c(N3C[C@@H]4CCCN[C@@H]4C3)c(F)cc2c1=O",
    "QUANTITATIVE_READOUT": 8.05
  },
  {
    "COMPOUND": "C[C@H]1COc2c(N3C[C@H]4CCCN[C@H]4C3)c(F)cc3c(=O)c(C(=O)O)cn1c23",
    "QUANTITATIVE_READOUT": 6.19
  },
  {
    "COMPOUND": "CNn1cc(C(=O)O)c(=O)c2cc(F)c(N3CCN(C)CC3)cc21",
    "QUANTITATIVE_READOUT": 6.75
  },
  {
    "COMPOUND": "COc1c(N2CC3=C(CN(C)CC3)C2)c(F)cc2c(=O)c(C(=O)O)cn(C3CC3)c12",
    "QUANTITATIVE_READOUT": 6.84
  },
  {
    "COMPOUND": "O=C(O)c1cn(C2CC2)c2c(F)c(N3C[C@H]4CCCN[C@H]4C3)c(F)cc2c1=O",
    "QUANTITATIVE_READOUT": 7.45
  },
  {
    "COMPOUND": "CN1CCC[C@H]2CN(c3c(F)cc4c(=O)c(C(=O)O)cn(C5CC5)c4c3Cl)C[C@H]21",
    "QUANTITATIVE_READOUT": 7.45
  },
  {
    "COMPOUND": "CO/N=C/Cn1cc(C(=O)O)c(=O)c2cc(F)c(N3CCN(C)CC3)c(F)c21",
    "QUANTITATIVE_READOUT": 5.29
  },
  {
    "COMPOUND": "CC(=O)N1CCC[C@H]2CN(c3c(F)cc4c(=O)c(C(=O)O)cn(C5CC5)c4c3Cl)C[C@H]21",
    "QUANTITATIVE_READOUT": 5.35
  },
  {
    "COMPOUND": "O=C(O)c1cn(C2CC2)c2c(F)c(N3C4CCC3CC4)c(F)cc2c1=O",
    "QUANTITATIVE_READOUT": 5.86
  },
  {
    "COMPOUND": "CSc1cc2c(=O)c(C(=O)O)cn(C3CC3)c2c(SC)c1SC",
    "QUANTITATIVE_READOUT": 4.36
  },
  {
    "COMPOUND": "C[C@@]12CN(c3c(F)cc4c(=O)c(C(=O)O)cn(C5C[C@@H]5F)c4c3F)C[C@@H]1CCCN2 (some centres not stated)",
    "QUANTITATIVE_READOUT": 7.46
  },
  {
    "COMPOUND": "O=C(O)c1cn(C2CC2)c2c(F)c(N3C[C@@H]4CCCN[C@@H]4C3)c(F)cc2c1=O",
    "QUANTITATIVE_READOUT": 8.02
  }
]
